The measured values listed here are drawn from ChEMBL document CHEMBL5291721.

Consider the following compounds; for each one, report its AC50.
- TESTED_SYSTEM: Muscarinic acetylcholine receptor M2 (Homo sapiens); further: assay procedure not described here
- Sequence (P08172 whole entry): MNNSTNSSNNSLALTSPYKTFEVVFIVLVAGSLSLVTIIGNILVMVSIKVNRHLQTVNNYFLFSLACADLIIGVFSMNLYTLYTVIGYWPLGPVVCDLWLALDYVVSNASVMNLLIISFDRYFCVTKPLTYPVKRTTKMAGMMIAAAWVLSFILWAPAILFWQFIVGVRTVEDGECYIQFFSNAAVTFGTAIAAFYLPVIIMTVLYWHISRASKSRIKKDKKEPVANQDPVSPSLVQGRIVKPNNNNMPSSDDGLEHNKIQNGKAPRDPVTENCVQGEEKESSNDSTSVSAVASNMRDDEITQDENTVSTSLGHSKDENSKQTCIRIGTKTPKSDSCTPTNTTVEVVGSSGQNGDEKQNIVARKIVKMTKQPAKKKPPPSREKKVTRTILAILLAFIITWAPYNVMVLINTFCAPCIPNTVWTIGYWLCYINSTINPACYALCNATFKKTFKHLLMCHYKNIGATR
- Type: functional, cell-based

Which measured AC50 belongs to NS(=O)(=O)c1cc(C2(O)NC(=O)c3ccccc32)ccc1Cl (stereo not given) [CHLORTHALIDONE] , tested on Muscarinic acetylcholine receptor M2 (Homo sapiens)?; further: assay procedure not described here
> 10 µM

Which measured AC50 belongs to OCCN1CCN(CC/C=C2/c3ccccc3Sc3ccc(Cl)cc32)CC1 [ZUCLOPENTHIXOL] , tested on Muscarinic acetylcholine receptor M2 (Homo sapiens)?; further: assay procedure not described here
> 10 µM

Which measured AC50 belongs to NS(=O)(=O)c1cc(C(=O)O)cc(N2CCCC2)c1Oc1ccccc1 [PIRETANIDE] , tested on Muscarinic acetylcholine receptor M2 (Homo sapiens)?; further: assay procedure not described here
> 30 µM

Which measured AC50 belongs to CC(C)c1cc2c(cc1S(=O)(=O)O)[C@@]1(C)CCC[C@@](C)(C(=O)O)[C@@H]1CC2 [ECABET] , tested on Muscarinic acetylcholine receptor M2 (Homo sapiens)?; further: assay procedure not described here
> 30 µM

Which measured AC50 belongs to COC(=O)[C@H](c1ccccc1Cl)N1CCc2sccc2C1 [CLOPIDOGREL] , tested on Muscarinic acetylcholine receptor M2 (Homo sapiens)?; further: assay procedure not described here
27 µM
